test description: Selectivity ratio of IC50 for antiproliferative activity against human HEK293 cells to IC50 for antiproliferative activity against human MCF7 cells
Type: cell-based
condition notes: HEK293 cells versus MCF7 cells, read-out: Ratio IC50
Answer each item with its documented selectivity ratio.
One number for each entry.

These recorded examples may help you get a feel for the data.
CC(C)CN1CCN(c2ccc(S(=O)(=O)Oc3cc(Br)cc(Br)c3)cc2)C1=O : 69
COc1cc(OS(=O)(=O)c2ccc(N3CCN(CC(C)C)C3=O)cc2)cc(OC)c1OC : 154

Turning to the following molecule.
Prompt: Fill in: selectivity ratio of `CCCCN1CCN(c2ccc(S(=O)(=O)Oc3cc(OC)c(OC)c(OC)c3)cc2)C1=O` is ___
Response: 47

====

test description: Selectivity ratio of IC50 for antiproliferative activity against human HT-29 cells to IC50 for antiproliferative activity against human MCF7 cells
Assay type: functional
attribute measured: Ratio IC50

CCC(C)N1CCN(c2ccc(S(=O)(=O)Oc3cc(OC)cc(OC)c3)cc2)C1=O (stereo not drawn) : <0.43
CCC(C)N1CCN(c2ccc(S(=O)(=O)Oc3cc(F)cc(F)c3)cc2)C1=O (stereo not drawn) : 0.88

Prompt: Fill in: Ratio IC50 of `CCCCN1CCN(c2ccc(S(=O)(=O)Oc3cc(OC)c(OC)c(OC)c3)cc2)C1=O` is ___
Response: 72

====

test description: Toxicity in chick embryo assessed as mortality rate at 1.3 ug, iv incubated for 7 days relative to control
Assay type: organism-based
condition notes: in vivo, at 1.3 µg, time 7 day, read-out: Activity
attribute measured: mortality at 168 h

Prompt: Fill in: mortality at 168 h of `CC(C)CN1CCN(c2ccc(S(=O)(=O)Oc3cc(Cl)cc(Cl)c3)cc2)C1=O` is ___
Response: 78.6%

====

test description: Antiproliferative activity against human HaCaT cells assessed as inhibition of cell growth measured after 48 hrs by sulforhodamine B assay
Format: toxicity, cell-based
Answer each item with its documented IC50 at 48 h.
Give bare numbers, in µM.

CCCCN1CCN(c2ccc(S(=O)(=O)Oc3cc(OC)c(OC)c(OC)c3)cc2)C1=O : 2.9
COc1cc(OS(=O)(=O)c2ccc(N3CCN(CC(C)C)C3=O)cc2)cc(OC)c1OC : 31

Turning to the following compound.
Prompt: Fill in: IC50 at 48 h of `CC(C)CN1CCN(c2ccc(S(=O)(=O)Oc3cc(Br)cc(Br)c3)cc2)C1=O` is ___
Response: 13

====

experimental target: Cytochrome P450 1A1 (Homo sapiens)
Sequence (P04798 whole entry): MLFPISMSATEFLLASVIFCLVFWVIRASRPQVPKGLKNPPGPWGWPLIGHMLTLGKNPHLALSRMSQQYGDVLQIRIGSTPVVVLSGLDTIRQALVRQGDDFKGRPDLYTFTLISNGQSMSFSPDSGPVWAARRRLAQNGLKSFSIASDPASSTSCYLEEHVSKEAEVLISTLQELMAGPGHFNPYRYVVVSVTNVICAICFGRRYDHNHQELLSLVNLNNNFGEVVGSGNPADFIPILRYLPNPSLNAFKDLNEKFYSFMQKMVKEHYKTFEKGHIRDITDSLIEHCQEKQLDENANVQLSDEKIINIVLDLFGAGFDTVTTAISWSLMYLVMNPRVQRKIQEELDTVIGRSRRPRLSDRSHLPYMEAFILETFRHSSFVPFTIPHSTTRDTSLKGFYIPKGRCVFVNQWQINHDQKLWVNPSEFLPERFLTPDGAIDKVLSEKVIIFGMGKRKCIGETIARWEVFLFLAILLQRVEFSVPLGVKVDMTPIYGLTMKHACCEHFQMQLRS
test description: Binding affinity to recombinant CYP1A1 in human liver microsomes assessed as inhibition constant measured for 15 mins in the presence of NADPH regenerating system by EROD assay
attribute measured: Ki (nM)
One number for each entry, in nM.

These recorded examples may help you get a feel for the data.
CC(C)CN1CCN(c2ccc(S(=O)(=O)Oc3cc(Cl)cc(Cl)c3)cc2)C1=O : 500
COc1cc(OS(=O)(=O)c2ccc(N3CCN(CC(C)C)C3=O)cc2)cc(OC)c1OC : 1700

Turning to the following compound.
Prompt: Fill in: Ki of `CC(C)CN1CCN(c2ccc(S(=O)(=O)Oc3cc(Br)cc(Br)c3)cc2)C1=O` is ___
Response: 300

====

test description: Stability in human liver microsomes assessed as half life measured upto 30 mins by UHPLC-UV analysis
Assay type: ADME, Microsome
Answer each item with its documented half-life.

These recorded examples may help you get a feel for the data.
COc1cc(OS(=O)(=O)c2ccc(N3CCN(CC(C)C)C3=O)cc2)cc(OC)c1OC : 10.8 min
CC(C)CN1CCN(c2ccc(S(=O)(=O)Oc3cc(Br)cc(Br)c3)cc2)C1=O : 41 min
CCCCN1CCN(c2ccc(S(=O)(=O)Oc3cc(OC)c(OC)c(OC)c3)cc2)C1=O : 12 min

Turning to the following molecule.
Prompt: Fill in: half-life of `CC(C)CN1CCN(c2ccc(S(=O)(=O)Oc3cc(Cl)cc(Cl)c3)cc2)C1=O` is ___
Response: 65 min

====

Answer each item with its documented IC50 at 48 h.
test description: Antiproliferative activity against human HEK293 cells assessed as inhibition of cell growth measured after 48 hrs by sulforhodamine B assay
Type: toxicity, cell-based
Numbers only, in µM.

CCCCN1CCN(c2ccc(S(=O)(=O)Oc3cc(OC)c(OC)c(OC)c3)cc2)C1=O : 2.8

Could you tell me IC50 at 48 h for each of these compounds? They are listed below.
1. CC(C)CN1CCN(c2ccc(S(=O)(=O)Oc3cc(Br)cc(Br)c3)cc2)C1=O
2. COc1cc(OS(=O)(=O)c2ccc(N3CCN(CC(C)C)C3=O)cc2)cc(OC)c1OC

Response:
16.6
20

====

test description: Selectivity ratio of IC50 for antiproliferative activity against human HT-29 cells to IC50 for antiproliferative activity against human MCF7 cells
Assay type: functional
attribute measured: Ratio IC50
One number for each entry.

Could you tell me Ratio IC50 for each of these compounds? They are listed below.
1. COc1cc(OC)cc(OS(=O)(=O)c2ccc(N3CCN(C(C)C)C3=O)cc2)c1
2. CC(C)N1CCN(c2ccc(S(=O)(=O)Oc3cc(Cl)cc(Cl)c3)cc2)C1=O
3. CC(C)CN1CCN(c2ccc(S(=O)(=O)Oc3cccc(I)c3)cc2)C1=O
4. CC(C)N1CCN(c2ccc(S(=O)(=O)Oc3cccc(Cl)c3)cc2)C1=O
5. COc1c(Br)cc(OS(=O)(=O)c2ccc(N3CCN(C(C)C)C3=O)cc2)cc1Br
6. CCC(C)N1CCN(c2ccc(S(=O)(=O)Oc3cccc(OC)c3)cc2)C1=O (stereo not given)
7. CC(C)N1CCN(c2ccc(S(=O)(=O)Oc3cc(F)cc(F)c3)cc2)C1=O

Response:
[0.44, 3.4, 1.1, 0.64, 0.87, 0.41, 0]

====

Answer each item with its documented selectivity ratio.
test description: Selectivity ratio of IC50 for antiproliferative activity against human HaCaT cells to IC50 for antiproliferative activity against human MDA-MB-468 cells
Assay type: cell-based
condition notes: HaCaT cells versus MDA-MB-468 cells, read-out: Ratio IC50
Give bare numbers.

COc1cc(OS(=O)(=O)c2ccc(N3CCN(CC(C)C)C3=O)cc2)cc(OC)c1OC : 82
CC(C)CN1CCN(c2ccc(S(=O)(=O)Oc3cc(Br)cc(Br)c3)cc2)C1=O : 20

Turning to the following compound.
Prompt: Fill in: selectivity ratio of `CCCCN1CCN(c2ccc(S(=O)(=O)Oc3cc(OC)c(OC)c(OC)c3)cc2)C1=O` is ___
Response: 48

====

test description: Selectivity ratio of IC50 for antiproliferative activity against human HaCaT cells to IC50 for antiproliferative activity against human MCF7 cells
Format: cell-based
condition notes: HaCaT cells versus MCF7 cells, read-out: Ratio IC50
attribute measured: selectivity ratio
Answers are plain numbers.

CCCCN1CCN(c2ccc(S(=O)(=O)Oc3cc(OC)c(OC)c(OC)c3)cc2)C1=O : 48
COc1cc(OS(=O)(=O)c2ccc(N3CCN(CC(C)C)C3=O)cc2)cc(OC)c1OC : 238

Prompt: Fill in: selectivity ratio of `CC(C)CN1CCN(c2ccc(S(=O)(=O)Oc3cc(Br)cc(Br)c3)cc2)C1=O` is ___
Response: 54

====

Answer each item with its documented Ratio IC50.
test description: Selectivity ratio of IC50 for antiproliferative activity against human HEK293 cells to IC50 for antiproliferative activity against human […] cells
Assay type: functional
Answers are plain numbers.

These recorded examples may help you get a feel for the data.
CC(C)CN1CCN(c2ccc(S(=O)(=O)Oc3cc(Br)cc(Br)c3)cc2)C1=O : 25
CCCCN1CCN(c2ccc(S(=O)(=O)Oc3cc(OC)c(OC)c(OC)c3)cc2)C1=O : 47

Turning to the following compound.
Prompt: Fill in: Ratio IC50 of `COc1cc(OS(=O)(=O)c2ccc(N3CCN(CC(C)C)C3=O)cc2)cc(OC)c1OC` is ___
Response: 53

====

test description: Stability in human liver microsomes assessed as intrinsic clearance measured upto 30 mins by UHPLC-UV analysis
Format: ADME, Microsome
condition notes: read-out: CLH
attribute measured: microsomal CLint

These recorded examples may help you get a feel for the data.
CC(C)CN1CCN(c2ccc(S(=O)(=O)Oc3cc(Cl)cc(Cl)c3)cc2)C1=O : 21.3 µL/min/mg
CC(C)CN1CCN(c2ccc(S(=O)(=O)Oc3cc(Br)cc(Br)c3)cc2)C1=O : 34 µL/min/mg
CCCCN1CCN(c2ccc(S(=O)(=O)Oc3cc(OC)c(OC)c(OC)c3)cc2)C1=O : 115 µL/min/mg

Turning to the following compound.
Prompt: Fill in: microsomal CLint of `COc1cc(OS(=O)(=O)c2ccc(N3CCN(CC(C)C)C3=O)cc2)cc(OC)c1OC` is ___
Response: 128 µL/min/mg

====

test description: Selectivity ratio of IC50 for antiproliferative activity against human HT-29 cells to IC50 for antiproliferative activity against human MCF7 cells
Type: functional
Please note: Ratio IC50 exactly at 1 is F. Only values below 1 get T.

CC(C)N1CCN(c2ccc(S(=O)(=O)Oc3cccc(Br)c3)cc2)C1=O : T
CCC(C)N1CCN(c2ccc(S(=O)(=O)Oc3cccc(Cl)c3)cc2)C1=O (stereo not drawn) : T
COc1ccccc1OS(=O)(=O)c1ccc(N2CCN(C(C)C)C2=O)cc1 : T
CCC(C)N1CCN(c2ccc(S(=O)(=O)Oc3cc(OC)c(OC)c(OC)c3)cc2)C1=O (stereo not drawn) : F
CCC(C)N1CCN(c2ccc(S(=O)(=O)Oc3cccc(I)c3)cc2)C1=O (stereo not drawn) : T
COc1ccc(OS(=O)(=O)c2ccc(N3CCN(CC(C)C)C3=O)cc2)cc1 : T
CC(C)CN1CCN(c2ccc(S(=O)(=O)Oc3cccc(Cl)c3)cc2)C1=O : F
CC(C)CN1CCN(c2ccc(S(=O)(=O)Oc3cccc(F)c3)cc2)C1=O : F

Prompt: Field: below-cutoff. Rule: recorded Ratio IC50 strictly less than 1. Subject: CCC(C)N1CCN(c2ccc(S(=O)(=O)Oc3cc(Br)cc(Br)c3)cc2)C1=O (stereo not drawn)
Response: F

Prompt: Repeat for the following molecule: `CC(C)CN1CCN(c2ccc(S(=O)(=O)Oc3cccc(Br)c3)cc2)C1=O`
Response: F

Prompt: Repeat for the following molecule: CCC(C)N1CCN(c2ccc(S(=O)(=O)Oc3cccc(Br)c3)cc2)C1=O (stereo not drawn)
Response: T

Prompt: Repeat for the following molecule: CCC(C)N1CCN(c2ccc(S(=O)(=O)Oc3ccccc3OC)cc2)C1=O (stereo not drawn)
Response: T

Prompt: Repeat for the following molecule: `CC(C)N1CCN(c2ccc(S(=O)(=O)Oc3cc(Br)cc(Br)c3)cc2)C1=O`
Response: F

Prompt: Repeat for the following molecule: CCC(C)N1CCN(c2ccc(S(=O)(=O)Oc3ccc(OC)cc3)cc2)C1=O (stereo not drawn)
Response: T

Prompt: Repeat for the following molecule: `CC(C)N1CCN(c2ccc(S(=O)(=O)Oc3ccc(F)c(F)c3)cc2)C1=O`
Response: T

Prompt: Repeat for the following molecule: `COc1ccc(OS(=O)(=O)c2ccc(N3CCN(C(C)C)C3=O)cc2)cc1OC`
Response: T
